Structures can show the parent of a compound that is named as a salt.
readoutLabel: melting point

Value of melting point reported for the compound NCC1Oc2cc(Cl)cc(-c3ccccc3Cl)c2O1 (centres unmarked) (as salt: hydrochloride) is > 250 °C

Item: COc1ccc(OC)c(-c2cc(Cl)cc3c2OC(CN)O3)c1 (centres unmarked) (as salt: hydrochloride) | melting point: 225 to 227 °C

# melting point of NC[C@@H]1Oc2cc(F)cc(-c3c(Cl)cccc3Cl)c2O1 (as salt: hydrochloride) = 206 to 208 °C

Looking up NCC1Oc2cc(Cl)cc(-c3ccccc3F)c2O1 (centres unmarked) (as salt: salt) , I found its melting point recorded as > 250 °C

The recorded melting point for CNCC1COc2cccc(-c3cccc(Cl)c3Cl)c2O1 (centres unmarked) (as salt: fumarate) is 184 to 185 °C

Lab book: melting point of CNCC1COc2cccc(-c3ccccc3OC)c2O1 (centres unmarked) (as salt: fumarate) noted as 168 to 169 °C

The compound listed as NCC1COc2cccc(-c3ccc(Cl)cc3Cl)c2O1 (centres unmarked) (as salt: fumarate) shows melting point equal to 192 to 193 °C

Looking up NCC1COc2cccc(-c3cccc(F)c3F)c2O1 (centres unmarked) (as salt: fumarate) , I see its melting point listed as 189 to 190 °C

* * *

biological target: human 5-HT2C receptor (Homo sapiens, UniProt P28335); experiment: 5-HT2C receptor-stimulated calcium mobilization (FLIPR) in CHO cells; format: cell-based; details: read-out: 5-HT2C Function EC50
Kindly supply the reported EC50 values for the records listed here.

Entry NC[C@H]1COc2cc(Cl)cc(-c3ccccc3C(F)(F)F)c2O1 ; EC50 = 0.1 to 0.5 µM

Briefly, EC50 measured for Clc1ccccc1-c1cccc2c1OC(CNC1CC1)CO2 (centres unmarked) : > 0.5 µM

EC50 in this record for Cc1cccc(C)c1-c1cccc2c1OC(CN)CO2 (centres unmarked) : < 0.1 µM

The compound listed as NCC1Oc2cc(F)cc(-c3ccccc3F)c2O1 (centres unmarked) shows EC50 equal to < 0.1 µM

Lab book: EC50 of NCC1COc2cccc(-c3cccc(Cl)c3Cl)c2O1 (centres unmarked) noted as 0.1 to 0.5 µM

The compound NC[C@H]1COc2cc(Cl)cc(-c3cc(Cl)ccc3Cl)c2O1 showed EC50 equal to 0.1 to 0.5 µM

Noted for Clc1ccc(-c2cccc3c2OC(CNC2CCC2)CO3)c(Cl)c1 (centres unmarked) : its EC50 reads > 0.5 µM

EC50 reported for this compound NCC1COc2cccc(-c3cc(F)ccc3F)c2O1 (centres unmarked) : < 0.1 µM

According to the records, this compound NCC1COc2cccc(-c3ccccc3Cl)c2O1 (centres unmarked) displays EC50 of < 0.1 µM

Sure, the documented EC50 for NCC1Oc2cc(F)cc(-c3cc(Cl)ccc3Cl)c2O1 (centres unmarked) is < 0.1 µM

Entry under test: NC[C@H]1COc2ccc(F)c(-c3ccccc3Cl)c2O1 . Its EC50 was < 0.1 µM

What the record says about NCC1Oc2cc(Cl)cc(-c3ccccc3Cl)c2O1 (centres unmarked) : EC50 is < 0.1 µM

Reported EC50 of Cc1ccc(C)c(-c2cccc3c2OC(CN)CO3)c1 (centres unmarked) : 0.1 to 0.5 µM

Short answer for CC(C)NCC1COc2cccc(-c3ccccc3Cl)c2O1 (centres unmarked) : EC50 was > 0.5 µM

Input CNCC1COc2cccc(-c3cccc(Cl)c3Cl)c2O1 (centres unmarked) . Output EC50: < 0.1 µM

Looking up Clc1ccc(-c2cccc3c2OC(CNCC2CC2)CO3)c(Cl)c1 (centres unmarked) , I found its EC50 recorded as > 0.5 µM

// EC50 value for CNCC1COc2cccc(-c3cc(F)ccc3F)c2O1 (centres unmarked) : > 0.5 µM

In plain terms, NC[C@@H]1Oc2cc(F)cc(-c3c(Cl)cccc3Cl)c2O1 has a documented EC50 of > 0.5 µM

// recorded EC50 for CNCC1COc2cccc(-c3ccccc3OC)c2O1 (centres unmarked) : 0.1 to 0.5 µM

// recorded EC50 for Cc1cccc(-c2cccc3c2OC(CN)CO3)c1C (centres unmarked) : 0.1 to 0.5 µM

* * *

Kindly supply the reported melting point values for the records listed here.
Counter-ions that a name gives are not always drawn.

What the record says about Cc1ccccc1-c1cc(Cl)cc2c1O[C@@H](CN)CO2 (as salt: hydrochloride) [Compound I-60] : melting point is > 245 °C

Summary for this compound, Clc1ccc(-c2cccc3c2OC(CNC2CC2)CO3)c(Cl)c1 (stereo not shown) (as salt: fumarate) [Compound I-44] : melting point is 181 to 182 °C

For reference, reported melting point for Clc1ccc(-c2cccc3c2OC(CNC2CCC2)CO3)c(Cl)c1 (stereo not shown) (as salt: fumarate) [Compound I-45] stands at 204 to 205 °C

get_value(item= COc1cccc(-c2cc(Cl)cc3c2OC(CN)O3)c1OC (stereo not shown) (as salt: hydrochloride) [Compound I-95] , readout=melting point) returns 228 to 230 °C

* * *

Molecular target: UniProtKB P28335
Sequence (P28335 33-458): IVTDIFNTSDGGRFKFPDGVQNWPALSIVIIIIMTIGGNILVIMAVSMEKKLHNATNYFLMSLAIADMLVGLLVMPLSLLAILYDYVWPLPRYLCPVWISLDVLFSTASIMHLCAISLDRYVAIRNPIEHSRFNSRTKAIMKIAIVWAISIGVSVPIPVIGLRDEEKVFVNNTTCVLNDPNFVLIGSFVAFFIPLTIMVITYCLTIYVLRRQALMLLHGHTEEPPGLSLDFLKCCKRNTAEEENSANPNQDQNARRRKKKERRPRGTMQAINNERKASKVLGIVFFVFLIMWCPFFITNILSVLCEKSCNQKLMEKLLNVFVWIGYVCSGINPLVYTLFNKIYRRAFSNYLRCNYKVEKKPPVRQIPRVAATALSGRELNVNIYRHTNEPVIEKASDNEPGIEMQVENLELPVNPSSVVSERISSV
Test: 5-HT2C receptor-stimulated calcium mobilization (FLIPR) in CHO cells
Assay type: cell-based
Settings: read-out: 5-HT2C Function EC50
So I've got a bunch of molecules here, and I need their EC50 values.

The molecule NC[C@H]1COc2ccc(Cl)c(-c3ccccc3Cl)c2O1 [Compound I-70] showed EC50 equal to < 100 nM

Please fill in: EC50 reported for NC[C@H]1COc2cccc(-c3c(Cl)cccc3Cl)c2O1 [Compound I-46] = < 100 nM

Per the record, NCC1COc2cccc(-c3ccc(Cl)cc3Cl)c2O1 (centres unmarked) [Compound I-7] has EC50 of < 100 nM

# molecule NC[C@H]1COc2cc(F)cc(-c3c(Cl)cccc3Cl)c2O1 [Compound I-47] ; its EC50 = < 100 nM

Field EC50 (entry CNCC1COc2cccc(-c3cccc(C)c3C)c2O1 (centres unmarked) [Compound I-25] ) reads > 500 nM

Looking up CCNCC1COc2cccc(-c3ccc(Cl)cc3Cl)c2O1 (centres unmarked) [Compound I-33] , I found its EC50 recorded as > 500 nM

Clc1ccc(-c2cccc3c2OC(CNC2CC2)CO3)c(Cl)c1 (centres unmarked) [Compound I-44] has a reported EC50 of > 500 nM

// EC50 value for Cc1cccc(C)c1-c1cc(Cl)cc2c1O[C@@H](CN)CO2 [Compound I-69] : 100 to 500 nM

Input CNCC1COc2cccc(-c3ccccc3F)c2O1 (centres unmarked) [Compound I-18] . Output EC50: < 100 nM

For record C=CCNCC1COc2cccc(-c3ccc(Cl)cc3Cl)c2O1 (centres unmarked) [Compound I-40] the listed EC50 is > 500 nM

# EC50 (molecule: CN(C)CC1COc2cccc(-c3ccccc3Cl)c2O1 (centres unmarked) [Compound I-38] ) is 100 to 500 nM

GET /value?item= CNCC1COc2cccc(-c3cc(Cl)ccc3OC)c2O1 (centres unmarked) [Compound I-31] &field=EC50 returns 100 to 500 nM

For this molecule ( NC[C@H]1COc2cc(Cl)cc(-c3ccccc3F)c2O1 [Compound I-59] ), measured EC50 is 100 to 500 nM

Query Cc1ccccc1-c1cccc2c1OC(CN)CO2 (centres unmarked) [Compound I-3] yields EC50 of < 100 nM

Record Cc1ccccc1-c1cc(F)cc2c1OC(CN)O2 (centres unmarked) [Compound I-80] . Reported EC50: < 100 nM

Given item COc1ccc(Cl)cc1-c1cccc2c1OC(CN)CO2 (centres unmarked) [Compound I-16] , the value recorded as its EC50 is < 100 nM

Form: molecule = NCC1COc2cccc(-c3cc(Cl)ccc3Cl)c2O1 (centres unmarked) [Compound I-8] ; EC50 = < 100 nM

In plain terms, CNCC1Oc2cc(F)cc(-c3ccccc3Cl)c2O1 (centres unmarked) [Compound I-87] has a documented EC50 of < 100 nM

In plain terms, NC[C@H]1Oc2cc(F)cc(-c3c(Cl)cccc3Cl)c2O1 [Compound I-85] has a documented EC50 of < 100 nM

The value of EC50 measured for the molecule CNCC1COc2cccc(-c3cc(C)ccc3C)c2O1 (centres unmarked) [Compound I-26] turned out to be < 100 nM

FYI, the data here is from patent US20060241172A1.
